# study.target: TRPV1 expressing rat trigeminal neurons (Rattus norvegicus)
# Construct: The ganglia were then dissociated into single cells; endogenous in cells; host or cells: primary cultured trigeminal ganglia neurons from newborn rats
# Sequence (O35433 whole entry): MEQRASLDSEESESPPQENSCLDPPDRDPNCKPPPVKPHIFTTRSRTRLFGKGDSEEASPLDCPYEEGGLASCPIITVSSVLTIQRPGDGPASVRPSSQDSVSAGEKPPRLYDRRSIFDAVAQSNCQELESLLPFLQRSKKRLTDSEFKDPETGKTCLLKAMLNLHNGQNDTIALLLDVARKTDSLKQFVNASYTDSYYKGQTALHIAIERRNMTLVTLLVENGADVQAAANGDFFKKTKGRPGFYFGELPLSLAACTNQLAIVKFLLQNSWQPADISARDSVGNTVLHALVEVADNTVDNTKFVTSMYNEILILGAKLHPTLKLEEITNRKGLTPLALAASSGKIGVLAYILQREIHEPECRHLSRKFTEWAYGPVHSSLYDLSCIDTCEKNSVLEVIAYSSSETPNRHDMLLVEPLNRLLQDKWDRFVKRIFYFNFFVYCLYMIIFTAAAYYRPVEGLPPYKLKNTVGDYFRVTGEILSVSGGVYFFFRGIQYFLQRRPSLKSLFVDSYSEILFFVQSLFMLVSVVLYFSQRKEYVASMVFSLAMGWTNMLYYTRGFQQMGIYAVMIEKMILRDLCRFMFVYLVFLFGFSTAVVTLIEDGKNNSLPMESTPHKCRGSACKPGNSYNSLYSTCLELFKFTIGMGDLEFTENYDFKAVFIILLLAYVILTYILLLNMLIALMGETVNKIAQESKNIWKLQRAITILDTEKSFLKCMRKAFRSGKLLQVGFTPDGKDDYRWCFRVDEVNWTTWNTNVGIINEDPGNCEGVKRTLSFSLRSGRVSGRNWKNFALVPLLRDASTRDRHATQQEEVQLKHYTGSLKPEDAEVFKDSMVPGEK
# method.summary: Ca2+ fluorescence measurements in cultured rat trigeminal ganglia neurons (capsaicin-induced calcium mobilisation)
# Assay type: cell-based
# reported.conditions: against capsaicin (0.1 μM)-induced calcium mobilisation, 10 minutes incubation prior to capsaicin; mean and 95% fiducial limits
quantity: IC50
Dear colleague, please send the value followed by its unit.

Worked examples follow.
{"molecule": "COc1cc(CNS(=O)(=O)c2ccc(NC(=S)NCc3ccc(C(C)(C)C)cc3)cc2)c(I)cc1O", "IC50": "60 nM"}
{"molecule": "COc1cc(CNS(=O)(=O)c2ccc(NC(=S)NCc3ccc(C(C)(C)C)cc3)cc2)c(Br)cc1O", "IC50": "212 nM"}
{"molecule": "Oc1cc2c(cc1O)CN(C(=S)NCCc1ccc(Cl)cc1)CCC2 [Capsazepine, capsazepine, reference compound]", "IC50": "2170 nM"}

Next, consider the following molecule.
// lookup IC50 for `COc1cc(CNS(=O)(=O)c2ccc(NC(=S)NCc3ccc(C(F)(F)F)cc3)cc2)c(Cl)cc1O`
270 nM
